Reference for the values: patent US20180327494A1

# target or test system: T1, PDL1-Fc fusion protein (human)
# T1 construct: expressed in CHO or HEK293 cells; also called Human PDL1-Fc; recombinant human PDL1-Fc
# T1 sequence (chain, as listed by the source limits assumed): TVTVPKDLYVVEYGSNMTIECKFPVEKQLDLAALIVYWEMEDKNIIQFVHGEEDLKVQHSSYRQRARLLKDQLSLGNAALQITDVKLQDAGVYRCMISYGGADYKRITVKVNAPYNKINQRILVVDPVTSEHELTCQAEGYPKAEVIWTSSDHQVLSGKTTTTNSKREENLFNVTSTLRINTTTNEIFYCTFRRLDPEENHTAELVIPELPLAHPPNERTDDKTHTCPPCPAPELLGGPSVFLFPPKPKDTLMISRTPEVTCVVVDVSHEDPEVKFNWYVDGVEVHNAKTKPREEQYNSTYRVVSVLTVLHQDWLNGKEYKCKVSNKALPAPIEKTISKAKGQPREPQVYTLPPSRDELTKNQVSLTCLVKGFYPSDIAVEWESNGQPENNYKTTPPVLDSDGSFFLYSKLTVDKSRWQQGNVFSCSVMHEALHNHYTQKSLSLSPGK
# assay summary: ELISA, ratio of OD on PDL1-Fc to OD on Fc protein
assay readout: OD (PDL1/Fc) (ratio)
Give the value in ratio but do not write ratio after it.

Answered examples (5):
[[record]]
binder = "PDL1-94 dAb (VHH, camel heavy chain single domain antibody expressed in E. coli, purified on nickel; also called antibody No. 94; not shown: His tag from expression vector PET32b) VHH: QVQLQESGGGSVQAGGSLRLSCAASLNIFSSYCMGWFRQAPGKQRVGVATIDSDGTTRYVDSVKGRFTISKDNAKNTLDLQMNSLKPEDTAMYYCAARLNCPGPVDWVPMFPYRGQGTQVTVSS"
reported_result = 10.3

[[record]]
binder = "PDL1-38 dAb (VHH, camel heavy chain single domain antibody expressed in E. coli, purified on nickel; also called antibody No. 38; not shown: His tag from expression vector PET32b) VHH: QVQLQESGGGSVQAGGSLRLSCAVSGFISSRRCMGWFRQAPGKERVGVANITGTGNTYLADSVKGRFTISQNNAKSTVYLQMNSLKPEDTAMYYCAADSFPTCTVVASSGAFQYWGQGTQVTVSS"
reported_result = 30.5

[[record]]
binder = "PDL1-69 dAb (VHH, camel heavy chain single domain antibody expressed in E. coli, purified on nickel; also called antibody No. 69; not shown: His tag from expression vector PET32b) VHH: QVQLQESGGGSVQAGGSLRLSCAVQRNISSSYCMAWFRQAPGKQRERVDKILTTPGNTYLADSVKGRFTISQNNAKSTVYLQMNSLKPEDTAMYYCAADSFQKPTCTVVASWPAFQYWGQGTQVTVSS"
reported_result = 7.1

[[record]]
binder = "PDL1-10 dAb (VHH, camel heavy chain single domain antibody expressed in E. coli, purified on nickel; also called antibody No. 10; not shown: His tag from expression vector PET32b) VHH: QVQLQESGGGSVQAGGSLRLSCAASGNIVSSYCMGWFRQAPGKERVGVAAIDSDGTTKYADSMKGRFTISKDNAKNTLDLQMNSLKPEDTAMYYCVARLNCPGPVDWVPMFPYRGQGTQVTVSS"
reported_result = 8.63

[[record]]
binder = "PDL1-27 dAb (VHH, camel heavy chain single domain antibody expressed in E. coli, purified on nickel; also called antibody No. 27; not shown: His tag from expression vector PET32b) VHH: QVQLQESGGGSVQAGGSLRLSCAASGNISSRRCMAWFRQAPGKERERVANILTTTGNTYLADSVKGRFTISQNNAKSTVYLQMNSLKPEDTAMYYCAADSFHDPTCTVVASSGAFQYWGQGTQVTVSS"
reported_result = 32.8


Item PDL1-81 dAb (VHH, camel heavy chain single domain antibody expressed in E. coli, purified on nickel; also called antibody No. 81; not shown: His tag from expression vector PET32b) VHH: QVQLQESGGGSVQAGGSLRLSCAASGNIIRVRCMAWFRQAPGKERERGPNILTTTISTYLADSVKGRFTISQNNAKSTVYLQMNSLKPEDTAMYYCAADSFGYPTCPGPASSGAFQYWGQGTQVTVSS : provide OD (PDL1/Fc)
31.5

Item PDL1-87 dAb (VHH, camel heavy chain single domain antibody expressed in E. coli, purified on nickel; also called antibody No. 87; not shown: His tag from expression vector PET32b) VHH: QVQLQESGGGSVQAGGSLKLSCAASGYIFSSCGMGWYRQAPGKERELVSTISSDGTTSYADSVKGRFTISQDNAKNTLYLQMNSLKTEDTAVYYCVADCPPIPEFTSCSGGYCLSGDYWGQGTQVTVSS : provide OD (PDL1/Fc)
18
